Experiment: Half life in CD-1 mouse liver microsomes in presence of NADPH by UPLC-MS analysis
Format: ADME, Microsome
Condition details: mouse, microsomes
Measured property: t1/2 (h)

INSERT INTO results (compound, measured_property, experimental_result) VALUES
  ('N#Cc1cc(NC(=O)[C@H]2c3ccccc3C(=O)N(CC(F)(F)F)[C@@H]2c2cccnc2)ccc1F (relative stereo) [SJ-733]', 't1/2', 1.63),
  ('CC(C)CN1C(=O)c2ccccc2[C@H](C(=O)Nc2ccc(F)c(C#N)c2)[C@H]1c1cn[nH]c1 (racemic)', 't1/2', 0.33);

A: CC(C)CN1C(=O)c2ccccc2[C@H](C(=O)Nc2cccc(C#N)c2)[C@H]1c1cccs1 (racemic)
B: CC(C)CN1C(=O)c2ccccc2[C@H](C(=O)Nc2ccc(F)c(C#N)c2)[C@H]1c1ccc(C#N)s1 (racemic)
Req: Returns: the argument ( A or B ) having the larger t1/2. Respond using the label that marks the chosen record.
Resp: B
(B: 1.21 h, A: 0.28 h)

###

Experiment: Half life in CD-1 mouse liver microsomes in presence of NADPH by UPLC-MS analysis
Assay type: ADME, Microsome
Condition details: CD-1, mouse, liver microsomes
Measured property: half-life

Req: Suppose we examine the compound COc1ccc(NC(=O)[C@H]2c3ccccc3C(=O)N(CC(C)C)[C@@H]2c2cccs2)cc1Cl (racemic) ; what half-life value has been reported?
Resp: < 30 min
